Assign inhibition at 0.1 µM to each entry below.
- system: σ1-receptor (Cavia porcellus)
- Construct: guinea pig brains were homogenized; from tissue; host or cells: guinea pig brain membranes
- procedure-summary: Sigma-1 receptor binding assay, [3H](+)-pentazocine displacement in guinea pig brain membranes
- condition-description: compound at 0.1 μM; [3H](+)-pentazocine 0.5 nM; guinea pig brain membranes; read-out: Sigma-1 Inhibition percent (0.1 μM)
Structures can show the parent of a compound that is named as a salt.
Answers are plain numbers, in %.

Examples from the recorded data:
molecule	recorded-number
Cc1nc(SCCCCCN2CCOCC2)nn1-c1ccc(Cl)c(Cl)c1 [compound 13, oxalate]	58.2
CCN(CC)CCSc1nc(C)n(-c2ccc(Cl)c(Cl)c2)n1 [compound 5, oxalate]	109
Cc1nc(OCCN2CCCC2)nn1-c1ccccc1	30.4
Cc1nc(OCCN2CCOCC2)nn1-c1ccc(Cl)c(Cl)c1 [compound 25, oxalate]	83.8

Entry under review: `Cc1nc(OCCCCN2CCOCC2)nn1-c1ccccc1` . Reported inhibition at 0.1 µM?
18.3

* * *

- system: σ1-receptor (Cavia porcellus)
- Construct: guinea pig brains were homogenized; from tissue; host or cells: guinea pig brain membranes
- procedure-summary: Sigma-1 receptor binding assay, [3H](+)-pentazocine displacement in guinea pig brain membranes
- condition-description: [3H](+)-pentazocine 0.5 nM; guinea pig brain membranes; read-out: Sigma-1 Ki (nm) Displ. 10^−7 M (10^−8 M)
Counter-ions that a name gives are not always drawn.
quantity-kind: pKi
One number for each entry, as −log10 of the molar value.

molecule	system	pKi
Cc1nc(SCCCN2CCC(c3ccccc3)CC2)nn1-c1ccc(Cl)c(Cl)c1 [compound 9, oxalate]	σ1-receptor (Cavia porcellus)	8.05
Cc1nc(S(=O)(=O)CCN2CCCC2)nn1-c1ccc(Cl)c(Cl)c1	σ1-receptor (Cavia porcellus)	8.66
Cc1nc(SCCCN2CCCC2)nn1-c1ccc(Cl)c(Cl)c1	σ1-receptor (Cavia porcellus)	8.68

For each of the molecules below, note its pKi.
1. Cc1nc(SCCN2CCCCC2)nn1-c1ccc(Cl)c(Cl)c1
2. CCN(CC)CCSc1nc(C)n(-c2ccc(Cl)c(Cl)c2)n1 [compound 5, oxalate]

[9.10, 8.96]

For each of the molecules below, note its pKi.
1. Cc1nc(SCCN2CCOCC2)nn1-c1ccc(Cl)c(Cl)c1 [compound 1, oxalate]
2. Cc1nc(SCCCN2CCOCC2)nn1-c1ccc(Cl)c(Cl)c1 [compound 7, oxalate]
3. CCN(CC)CCS(=O)(=O)c1nc(C)n(-c2ccc(Cl)c(Cl)c2)n1

8.96
8.09
7.78

* * *

Assign inhibition at 0.1 µM to each entry below.
- system: σ1-receptor (Cavia porcellus, UniProt Q60492)
- Construct: guinea pig brains were homogenized; from tissue; host or cells: guinea pig brain membranes
- Sequence (Q60492 whole entry): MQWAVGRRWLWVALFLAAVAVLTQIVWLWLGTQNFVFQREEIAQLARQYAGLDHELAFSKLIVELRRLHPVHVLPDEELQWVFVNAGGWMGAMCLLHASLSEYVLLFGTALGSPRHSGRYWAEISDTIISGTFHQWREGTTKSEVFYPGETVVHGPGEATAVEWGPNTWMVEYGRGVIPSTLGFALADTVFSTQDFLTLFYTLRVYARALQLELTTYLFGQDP
- procedure-summary: Sigma-1 receptor binding assay, [3H](+)-pentazocine displacement in guinea pig brain membranes
- condition-description: compound at 0.1 μM; [3H](+)-pentazocine 0.5 nM; guinea pig brain membranes; read-out: Sigma-1 Inhibition percent (0.1 μM)
Structures can show the parent of a compound that is named as a salt.
One number for each entry, in %.

Examples from the recorded data:
molecule	quantity-kind	recorded-number
Cc1nc(SCCN2CCCCC2)nn1-c1ccc(Cl)c(Cl)c1 [compound 2]	inhibition at 0.1 µM	109
Cc1nc(OCCN2CCCC2)nn1-c1ccc(Cl)c(Cl)c1 [compound 24]	inhibition at 0.1 µM	91.8
CCN(CC)CCOc1nc(C)n(-c2ccccc2)n1 [compound 26]	inhibition at 0.1 µM	15.2
Cc1nc(OCCN2CCCCC2)nn1-c1ccc(Cl)c(Cl)c1 [compound 22]	inhibition at 0.1 µM	94.8
Cc1nc(SCCCN2CCC(c3ccccc3)CC2)nn1-c1ccc(Cl)c(Cl)c1 [compound 9, oxalate]	inhibition at 0.1 µM	89
Cc1nc(SCCN2CCCCCC2)nn1-c1ccc(Cl)c(Cl)c1 [compound 6, oxalate]	inhibition at 0.1 µM	99.2
Cc1nc(OCCN2CCCCC2)nn1-c1ccccc1 [compound 29]	inhibition at 0.1 µM	46.1
Cc1nc([S+]([O-])CCCCN2CCC(c3ccccc3)CC2)nn1-c1ccc(Cl)c(Cl)c1 (stereo not drawn) [compound 18]	inhibition at 0.1 µM	37.2

Entry under review: Cc1nc(SCCCCN2CCOCC2)nn1-c1ccc(Cl)c(Cl)c1 [compound 11, oxalate] . Reported inhibition at 0.1 µM?
66.9
